These data points were gathered from the supplement of paper PMC9233669.

Below, each of the sequences is paired with its reported self-aminoacylation value.
Tested on: biotinyl-Val-oxazolone
assay.text: self-aminoacylation, catalytic enhancement (BVO) (fold over background); higher = more active; k-Seq, kA / k0A0; sequences stand for … in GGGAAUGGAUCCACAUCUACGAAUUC…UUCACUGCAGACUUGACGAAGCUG
Variants at the floor of the assay were thinned out.
Lab note: record just the number, no unit beside it.

Give the measured self-aminoacylation for AAUUUUGCUAAUUGUCGCAAG [Fam3.1 aminoacylation ribozyme variant] 1.73

More entries:
Determine from records and report self-aminoacylation for AUUACCCUGGGCAUCGAUUGA [Fam2.1 aminoacylation ribozyme variant] 0.648

Note self-aminoacylation for the sequence shown: CUACAUCAAACAAUCGGUCCG [Fam1A.1 aminoacylation ribozyme variant] 0.872

Return self-aminoacylation (reported value) for this sequence: CCACUUCAAACAAUCGGUCCG [Fam1A.1 aminoacylation ribozyme variant] 1.49

====

System: biotinyl-Trp-oxazolone
assay.text: self-aminoacylation, catalytic enhancement (BWO) (fold over background); higher = more active; k-Seq, kA / k0A0; sequences stand for … in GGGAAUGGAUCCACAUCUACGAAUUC…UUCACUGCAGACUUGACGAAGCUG
Variants at the floor of the assay were thinned out.
measured.metric: self-aminoacylation
Respond using a number only.

Determine its reported self-aminoacylation: AAGCUUGAUAAUAGUCGCAAG [Fam3.1 aminoacylation ribozyme variant] 2.02

Provide self-aminoacylation value for the following sequence: CCACACUUCAAUCGAUCGGUC [Fam1B.1 aminoacylation ribozyme variant] 2.43

Using known records, supply self-aminoacylation for AUUCCCCUGGUCAUUGAGUGA [Fam2.1 aminoacylation ribozyme variant] 11.7

Answer with reported self-aminoacylation of CUACUUGUAACAAUCGGUCUG [Fam1A.1 aminoacylation ribozyme variant] 0.573

Shifting focus to the sequence that follows.
Tell me its self-aminoacylation given AUUAACGUAGGUCAUCGGGUG [Fam2.2 aminoacylation ribozyme variant] as the entry. 3.61

====

System: biotinyl-Phe-oxazolone
assay.text: self-aminoacylation, catalytic enhancement (BFO) (fold over background); higher = more active; k-Seq, kA / k0A0; sequences stand for … in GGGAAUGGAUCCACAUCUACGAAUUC…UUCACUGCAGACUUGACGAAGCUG
This sample holds only a part of the variants without activity.
measured.metric: self-aminoacylation
Keep it simple and answer with nothing but the number.

Example entries and their recorded answers appear below.
Report value: self-aminoacylation, system: biotinyl-Phe-oxazolone, sequence: AAGUUUGCUAAUUGGCGCAAG [Fam3.1 aminoacylation ribozyme variant] 2.62

Name the value of self-aminoacylation reported for AUCCCCCUGGUCAUCGAGUGA [Fam2.1 aminoacylation ribozyme variant] when tested on biotinyl-Phe-oxazolone. 45.2

Give measured self-aminoacylation for CCACACUUCAAGAAUUCGGUC [Fam1B.1 aminoacylation ribozyme variant] (biotinyl-Phe-oxazolone). 7.52

GET self-aminoacylation where system = biotinyl-Phe-oxazolone and item = CUUGACCUAGGUCAUCGGGUG [Fam2.2 aminoacylation ribozyme variant] 23.2

For biotinyl-Phe-oxazolone, give self-aminoacylation of the listed sequence: CCACACUCCUAGCAAUCGGUC [Fam1B.1 aminoacylation ribozyme variant] 0.91

Okay, now this sequence:
Please report self-aminoacylation with biotinyl-Phe-oxazolone for item AUUACACUGGUCAUCUAGUGA [Fam2.1 aminoacylation ribozyme variant] . 35
